Tested on: Proteus mirabilis 2
Test: In vitro MIC, Broth Dilution Method
Assay type: cell-based
Conditions: Broth Dilution Method; Proteus mirabilis 2; read-out: In Vitro MIC
Structures can show the parent of a compound that is named as a salt.
Exercise: for every item that follows, state its recorded MIC.
Give bare numbers, in µg/mL.

Some solved entries appear below for comparison.
# compound, readout unit, MIC
rows = [
    ("CCn1cc(C(=O)O)c(=O)c2cc(F)c(N3CCN(C=N[C@@H]4C(=O)N5[C@@H]4SC(C)(C)[C@@H]5C(=O)O)CC3)cc21 [Compound B, monosodium salt]", "µg/mL", 0.125),
    ("CCn1cc(C(=O)OC)c(=O)c2cc(F)c(N3CCN(C=N[C@@H]4C(=O)N5[C@@H]4SC(C)(C)[C@@H]5C(=O)O)CC3)cc21", "µg/mL", 8),
    ("CCn1cc(C(=O)O)c(=O)c2cc(F)c(N3CCN(C=N[C@@H]4C(=O)N5C(C(=O)O)=C(CSc6nc(=O)c(=O)[nH]n6C)CS[C@H]45)CC3)cc21 [Compound J, disodium salt]", "µg/mL", 0.5),
]

Kindly consider the entry below.
Record CCn1cc(C(=O)O)c(=O)c2cc(F)c(N3CCN(C=N[C@@H]4C(=O)N5[C@@H]4SC(C)(C)[C@@H]5C(=O)O)CC3)nc21 [Compound H, disodium salt] . Reported MIC: 0.5

----------
System: Pseudomonas aeruginosa B
Assay: In vitro MIC, Agar Well Diffusion Method
Format: cell-based
Conditions: Agar Well Diffusion Method; Pseudomonas aeruginosa B; read-out: In Vitro MIC
Structures can show the parent of a compound that is named as a salt.
So I've got a bunch of molecules here, and I need their MIC values.
Numbers only, in µg/mL.

Here is how some molecules turned out for MIC.
# molecule, experimental target, endpoint, quantitative readout
measured = [
    ("CCn1cc(C(=O)O)c(=O)c2cc(F)c(N3CCN(C=N[C@@H]4C(=O)N5C(C(=O)O)=C(C)CS[C@H]45)CC3)cc21 [Compound C, disodium salt]", "Pseudomonas aeruginosa B", "MIC", 3.9),
    ("CC1(C)S[C@@H]2[C@H](N=CN3CCN(c4c(F)cc5c(=O)c(C(=O)O)cn(CCF)c5c4F)CC3)C(=O)N2[C@H]1C(=O)O [Compound D, monosodium salt]", "Pseudomonas aeruginosa B", "MIC", 15.6),
    ("CCn1cc(C(=O)O)c(=O)c2cc(F)c(N3CCCN(C=N[C@@H]4C(=O)N5[C@@H]4SC(C)(C)[C@@H]5C(=O)O)CC3)cc21 [Compound G, disodium salt]", "Pseudomonas aeruginosa B", "MIC", 50),
    ("CCn1cc(C(=O)OC)c(=O)c2cc(F)c(N3CCN(C=N[C@@H]4C(=O)N5[C@@H]4SC(C)(C)[C@@H]5C(=O)O)CC3)cc21 [Compound A]", "Pseudomonas aeruginosa B", "MIC", 250),
    ("CCn1cc(C(=O)O)c(=O)c2cc(F)c(N3CCN(C=N[C@@H]4C(=O)N5[C@@H]4SC(C)(C)[C@@H]5C(=O)O)CC3)cc21 [Compound B, monosodium salt]", "Pseudomonas aeruginosa B", "MIC", 7.8),
]

Note to self: MIC recorded for CCn1cc(C(=O)O)c(=O)c2cc(F)c(N3CCN(C=N[C@@H]4C(=O)N5[C@@H]4SC(C)(C)[C@@H]5C(=O)O)CC3)nc21 [Compound H, disodium salt] was 15.6
